Test system: Staphylococcus aureus FDA 209P
test method notes: MIC, Staphylococcus aureus FDA 209P (SA(2))
Type: cell-based
measurement context: Staphylococcus aureus, FDA209P, Staphylococcus aureus FDA 209P; read-out: MIC SA (2)
Overview of reported MIC across a group of compounds:
observable: MIC

[
  {
    "compound": "CCNC1CC(C)OC(OC2C(C)C(OC3CC(C)(OC)C(O)C(C)O3)C(C)C(=O)OC(CC)C(C)(O)C(O)C(C)C3=C(C)CC2(C)O3)C1O (stereo not shown)",
    "data value": "> 100 mg/L"
  },
  {
    "compound": "CC[C@H]1OC(=O)[C@H](C)[C@@H](O[C@H]2C[C@@](C)(OC)[C@@H](O)[C@H](C)O2)[C@H](C)[C@@H](O[C@@H]2O[C@H](C)C[C@H](N(C)C)[C@H]2O)[C@@]2(C)CC(C)C3(O[C@@]1(C)[C@H](O)[C@H]3C)O2 (stereo partly shown) [*2 (EM202), Anhydroerythromycin A, reference compound]",
    "data value": "12.5 mg/L"
  },
  {
    "compound": "CCC1OC(=O)C(C)C(OC2CC(C)(OC)C(O)C(C)O2)C(C)C(OC2OC(C)CC([N+](C)(C)C)C2OC(C)=O)C2(C)CC(C)=C(O2)C(C)C(O)C1(C)O (stereo not shown)",
    "data value": "> 100 mg/L"
  },
  {
    "compound": "CCC1OC(=O)C(C)C(OC2CC(C)(OC)C(O)C(C)O2)C(C)C(OC2OC(C)CC([N+](C)(C)C)C2O)C2(C)CC(C)=C(O2)C(C)C(O)C1(C)O (stereo not shown)",
    "data value": "> 100 mg/L"
  },
  {
    "compound": "CCC1OC(=O)C(C)C(OC2CC(C)(OC)C(O)C(C)O2)C(C)C(OC2OC(C)CC(N(C)CC)C2O)C2(C)CC(C)=C(O2)C(C)C2OC(=O)OC12C (stereo not shown)",
    "data value": "> 100 mg/L"
  },
  {
    "compound": "CCCN(C)C1CC(C)OC(OC2C(C)C(OC3CC(C)(OC)C(O)C(C)O3)C(C)C(=O)OC(CC)C(C)(O)C(O)C(C)C3=C(C)CC2(C)O3)C1O (stereo not shown)",
    "data value": "> 100 mg/L"
  },
  {
    "compound": "CC[C@H]1OC(=O)[C@H](C)[C@@H](O[C@H]2C[C@@](C)(OC)[C@@H](O)[C@H](C)O2)[C@H](C)[C@@H](O[C@@H]2O[C@H](C)C[C@H](N(C)CC)[C@H]2O)[C@@]2(C)CC(C)C(O2)[C@H](C)[C@@H](O)[C@]1(C)O (stereo partly shown)",
    "data value": "> 100 mg/L"
  },
  {
    "compound": "C=CCN(CC=C)C1CC(C)OC(OC2C(C)C(OC3CC(C)(OC)C(O)C(C)O3)C(C)C(=O)OC(CC)C(C)(O)C(O)C(C)C3=C(C)CC2(C)O3)C1O (stereo not shown)",
    "data value": "> 100 mg/L"
  },
  {
    "compound": "C=CC[N+](C)(CC=C)C1CC(C)OC(OC2C(C)C(OC3CC(C)(OC)C(O)C(C)O3)C(C)C(=O)OC(CC)C(C)(O)C(O)C(C)C3=C(C)CC2(C)O3)C1O (stereo not shown)",
    "data value": "100 mg/L"
  },
  {
    "compound": "C#CCN(CC#C)C1CC(C)OC(OC2C(C)C(OC3CC(C)(OC)C(O)C(C)O3)C(C)C(=O)OC(CC)C(C)(O)C(O)C(C)C3=C(C)CC2(C)O3)C1O (stereo not shown)",
    "data value": "> 100 mg/L"
  }
]
